Data origin, for the record: patent US4816467A

Recorded LD50 at 168 h by entry
- protocolSummary: approximate acute toxicity (LD50) in the mouse, per os
- conditionSet: in vivo, po, single administration of increasing doses, measured on the seventh day

>>> df
                                   compound     reported
0  N#CC(C(=O)Nc1ccccc1)C(=O)c1nn(-c2ccccc2)c2c1CSc1ccccc1-2 (centres unmarked)  > 800 mg/kg

The compound listed as N#CC(C(=O)Nc1ccccc1)C(=O)c1nn(-c2ccccc2)c2c1COc1ccccc1-2 (centres unmarked) has a reported LD50 at 168 h of > 800 mg/kg
